Test: chemical genetic growth profiling, strain panel (AID 1159580);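 also: tested at 20 µM; growth read once vehicle control cultures reached saturation at 30 °C; 1 = growth at the plate median or of vehicle wells; lower values mean less growth of the strain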
Settings: S. cerevisiae deletion strains, growth OD, locus YPL078C, strain atp4
The whole screen tested about 5,500 compounds, of which about 2,000 (36%) were called active. Another 18% or so got no clear call; they are omitted. Rule as the data show it: active = normalized growth mostly below about 0.91 (no sharp cut-off); inconclusive = no clear call, values can overlap the other calls; inactive = mostly above about 0.92. This is one part of the list.
Please reply with one of these outcomes: active, inactive

Query string: Recorded test outcome, item CN1CCN(CCC=C2c3ccccc3Sc3ccc(S(=O)(=O)N(C)C)cc32)CC1
Result string: inactive

Query string: Recorded test outcome, item CC(=O)Oc1cccc2c1C(=O)c1c(OC(C)=O)cc(C(=O)O)cc1C2=O
Result string: inactive

Query string: Recorded test outcome, item O=C(CCc1ccc(O)cc1)c1c(O)cc(O)cc1O[C@@H]1O[C@H](CO)[C@@H](O)[C@H](O)[C@H]1O
Result string: inactive

Query string: Recorded test outcome, item COc1c2c(cc3c1OCO3)C13C=C[C@H](OC)CC1N(C2)CC3O (stereo partly drawn)
Result string: inactive

Query string: Recorded test outcome, item CC(=O)[O][Hg][c]1ccccc1
Result string: active

Query string: Recorded test outcome, item CC(=O)Oc1ccccc1C(=O)O
Result string: inactive

Query string: Recorded test outcome, item O=c1oc2c(O)c(O)cc3c(=O)oc4c(O)c(O)cc1c4c23
Result string: active

Query string: Recorded test outcome, item OCCN1CCN(CCCN2c3ccccc3Sc3ccc(C(F)(F)F)cc32)CC1
Result string: inactive

----------
Test: chemical genetic growth profiling, strain panel (AID 1159580);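 also: tested at 20 µM; growth read once vehicle control cultures reached saturation at 30 °C; 1 = growth at the plate median or of vehicle wells; lower values mean less growth of the strain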
Details: S. cerevisiae deletion strains, growth OD, locus YJL095W, strain BCK1
Hit rate of the full screen: of about 5,500 compounds, about 2,000 (36%) were called active. Inconclusive results (about 18%) are left out. No stated cut-off is given here; in the data, active means normalized growth mostly below about 0.91 (no sharp cut-off); inconclusive means no clear call, values can overlap the other calls; inactive means mostly above about 0.92. The list shows a part of the results.
Please reply with one of these outcomes: active, inactive

Query string: Recorded test outcome, item CN1c2ccccc2C(C)(C)C12C=Cc1cc(O)ccc1O2 (stereo unspecified)
Result string: inactive

Query string: Recorded test outcome, item CC(=O)c1ccccc1C(=O)c1ccc(C(C)(C)C)cc1
Result string: inactive

Query string: Recorded test outcome, item OCCN1CCN(CCCN2c3ccccc3Sc3ccc(C(F)(F)F)cc32)CC1
Result string: active

Query string: Recorded test outcome, item O=C(Nc1cccnc1)c1cc2c(s1)-c1ccccc1CC2
Result string: active

Query string: Recorded test outcome, item O=c1c(-c2ccccc2)c(O)c2cccc3c4c(n1c23)CCCC4
Result string: active

Query string: Recorded test outcome, item Cn1nc(-c2ccccc2)c(O)c(N=Nc2ccccc2)c1=O
Result string: inactive

----------
Assay: chemical genetic growth profiling, strain panel (AID 1159580);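 also: tested at 20 µM; growth read once vehicle control cultures reached saturation at 30 °C; 1 = growth at the plate median or of vehicle wells; lower values mean less growth of the strain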
Conditions: S. cerevisiae deletion strains, growth OD, locus YCR088W, strain abp1, active compounds read low
About 2,000 (36%) of roughly 5,500 compounds were called active. Another 18% or so got no clear call; they are omitted. The list shows a part of the results. Where a SMILES comes first, the peptide text is derived from it. Bridges are numbered along the chain shown (N, C = ends). Side-chain parts run from the residue outwards. [ ]: non-standard residue; d: D form. The star is where a group is joined. Octanoyl(6-Me) = CCC(C)CCCCC(=O)*; X1 = CCC(C)C(N)C1=NC(C(=O)*)CS1; Orn = NCCC[CH](N)C(=O)O; Dab = NCC[CH](N)C(=O)O
MEASURED ATTRIBUTE: normalized growth
Please give only the number in your answer, with no unit.

Query string: Fill in the blank: the reported normalized growth of CCC(C)C(N)C1=NC(C(=O)NC(CC(C)C)C(=O)NC(CCC(=O)O)C(=O)NC(C(=O)NCCCCC2NC(=O)C(CC(N)=O)NC(=O)C(CC(=O)O)NC(=O)C(Cc3cnc[nH]3)NC(=O)C(Cc3ccccc3)NC(=O)C(C(C)CC)NC(=O)C(CCCN)NC2=O)C(C)CC)CS1 (stereo not drawn) (cyclo(DNK([Ile-Glu-Leu-X1])[Orn]IFH); configuration not given here) is ____.
Result string: 1.01

Query string: Fill in the blank: the reported normalized growth of Cc1cc(C(C)(C)C)cc(C)c1CC1=NCCN1 is ____.
Result string: 0.996

Query string: Fill in the blank: the reported normalized growth of COc1cnc(NS(=O)(=O)c2ccc(N)cc2)nc1 is ____.
Result string: 1

Query string: Fill in the blank: the reported normalized growth of O=C(O)[C@H](O)[C@@](O)(Cc1ccc(O)cc1)C(=O)O is ____.
Result string: 1.01

Query string: Fill in the blank: the reported normalized growth of CC(C)CC1NC(=O)C(CCCN)NC(=O)C(C(C)C)NC(=O)C2CCCN2C(=O)C(Cc2ccccc2)NC(=O)C(CC(C)C)NC(=O)C(CCCN)NC(=O)C(C(C)C)NC(=O)C2CCCN2C(=O)C(Cc2ccccc2)NC1=O (configuration not stated) (cyclo(FPV[Orn]LFPV[Orn]L); configuration not given here) is ____.
Result string: 1.03

Query string: Fill in the blank: the reported normalized growth of CO[C@H]1C[C@H](O[C@H]2[C@H](C)[C@@H](OC3O[C@H](C)C[C@H](N(C)C)[C@H]3OC(C)=O)[C@@H](C)C[C@]3(CO3)C(=O)[C@H](C)[C@@H](OC(C)=O)[C@@H](C)[C@@H](C)OC(=O)[C@@H]2C)O[C@@H](C)[C@@H]1OC(C)=O (some centres not stated) is ____.
Result string: 0.994

Query string: Fill in the blank: the reported normalized growth of Cc1ccc(N(CC2=NCCN2)c2cccc(O)c2)cc1 is ____.
Result string: 1.01

Query string: Fill in the blank: the reported normalized growth of CCC(C)CCCCC(=O)NC(CCN)C(=O)NC(C(=O)NC(CCN)C(=O)NC1CCNC(=O)C(C(C)O)NC(=O)C(CCN)NC(=O)C(CCN)NC(=O)C(CC(C)C)NC(=O)C(Cc2ccccc2)NC(=O)C(CCN)NC1=O)C(C)O (configuration not stated) ({Octanoyl(6-Me)}-[Dab]T[Dab][Dab][Dab]FL[Dab][Dab]T; lactam 4-C; configuration not given here) is ____.
Result string: 0.997

Query string: Fill in the blank: the reported normalized growth of C=C(C)[C@@H]1CC[C@]2(CO)CC[C@]3(C)[C@H](CCC4[C@@]5(C)CC[C@H](O)C(C)(C)C5CC[C@]43C)C12 (some centres not stated) is ____.
Result string: 1.01

Query string: Fill in the blank: the reported normalized growth of C=C(C)[C@H]1Cc2c(ccc3c2O[C@@H]2COc4cc(OC)c(OC)cc4[C@@H]2C3=O)O1 is ____.
Result string: 1.03

Query string: Fill in the blank: the reported normalized growth of COc1cc2c(cc1O)CCNC2C (configuration not stated) is ____.
Result string: 0.975

Query string: Fill in the blank: the reported normalized growth of Cc1cc(C(C)(C)C)c(O)c(C)c1CC1=NCCN1 is ____.
Result string: 1

This collection of values is drawn from PubChem BioAssay AID1159580.
